Below is a list of entries, each paired with its recorded melting point value.

1) O=c1cc(CN2CCSCC2)c2cc(Cl)ccc2o1 [9l]; 152 to 153 °C
2) Cc1ccc2oc(=O)cc(CN3CCSCC3)c2c1 [10l]; 121 to 122 °C
3) Cc1ccc(NCc2cc(=O)oc3ccc(C)cc23)cc1 [10b]; 188 to 189 °C
4) O=c1cc(CNc2ccccc2)c2cc(Cl)ccc2o1 [9a]; 187 to 188 °C
5) CCc1ccc2oc(=O)cc(CNc3ccccc3)c2c1 [11a]; 91 to 93 °C

Which measured melting point value corresponds to Cc1ccc2oc(=O)cc(CN3CCOCC3)c2c1 [10k] ?
99 to 100 °C

Next compound up: CCc1ccc2oc(=O)cc(CN3CCS(=O)(=O)CC3)c2c1 [11m]
175 to 177 °C

Next compound up: CCc1ccc2oc(=O)cc(CN3CCCCC3)c2c1 [11i]
96 to 98 °C

Next compound up: Cc1ccc2oc(=O)cc(CNc3ccc(Br)cc3)c2c1 [10d]
178 to 179 °C

Next compound up: Cc1ccc2oc(=O)cc(CN3CCS(=O)(=O)CC3)c2c1 [10m]
170 to 172 °C

----------
Below is a list of entries, each paired with its recorded melting point value.

1) O=c1cc(CN2CCOCC2)c2cc(Cl)ccc2o1; 177 to 178 °C
2) O=c1cc(CN2CCC(c3ccccc3)CC2)c2cc(Cl)ccc2o1; 163 to 164 °C
3) CN(Cc1cc(=O)oc2ccc(Cl)cc12)c1ccc(Cl)cc1; 185 to 186 °C
4) CCc1ccc2oc(=O)cc(CNc3ccc(Br)cc3)c2c1 [11d]; 184 to 186 °C
5) CCc1ccc2oc(=O)cc(CN3CCSCC3)c2c1 [11l]; 134 to 135 °C

Which measured melting point value corresponds to O=c1cc(CN2CCS(=O)(=O)CC2)c2cc(Cl)ccc2o1 ?
162 to 164 °C

Next compound up: CCc1ccc2oc(=O)cc(CNc3ccc(C)cc3)c2c1 [11b]
171 to 172 °C

----------
Below is a list of entries, each paired with its recorded melting point value.

Reference set, count: 3
1) Cc1ccc2oc(=O)cc(CN(C)c3ccc(Cl)cc3)c2c1 [10h]; 173 to 174 °C
2) Cc1ccc2oc(=O)cc(CNc3ccc(Cl)cc3)c2c1 [10c]; 180 to 181 °C
3) O=c1cc(CN2CCNCC2)c2cc(Cl)ccc2o1 [9j]; > 300 °C

Which measured melting point value corresponds to CCc1ccc2oc(=O)cc(CNc3ccc(OC)cc3)c2c1 [11e] ?
151 to 152 °C

Next compound up: Cc1cc(C)cc(NCc2cc(=O)oc3ccc(Cl)cc23)c1 [9f]
192 to 194 °C

Next compound up: CCc1ccc2oc(=O)cc(CNc3ccc(Cl)cc3)c2c1 [11c]
171 to 173 °C

Next compound up: Cc1ccc2oc(=O)cc(CN3CCNCC3)c2c1 [10j]
> 300 °C

Next compound up: O=c1cc(CNc2ccc(Br)cc2)c2cc(Cl)ccc2o1 [9d]
231 to 232 °C

Next compound up: COc1ccc(NCc2cc(=O)oc3ccc(Cl)cc23)cc1 [9e]
192 to 194 °C

----------
assay-readout: melting point

Reference set, count: 4
1. CCc1ccc2oc(=O)cc(CN3CCNCC3)c2c1 [11j]; > 300 °C
2. Cc1ccc(NCc2cc(=O)oc3ccc(Cl)cc23)cc1; 201 °C
3. Cc1ccc2oc(=O)cc(CNc3ccccc3)c2c1 [10a]; 164 to 165 °C
4. COc1ccc(NCc2cc(=O)oc3ccc(C)cc23)cc1 [10e]; 169 to 170 °C

From here, focus on the item given below.
Which measured melting point value corresponds to CCc1ccc2oc(=O)cc(CNc3cc(C)cc(C)c3)c2c1 [11f] ?
176 to 178 °C
